Values from the supplement of paper PMC7125110

Reported kcat values are given for each entry in this list.
B1: glmS ribozyme (parent)
chain: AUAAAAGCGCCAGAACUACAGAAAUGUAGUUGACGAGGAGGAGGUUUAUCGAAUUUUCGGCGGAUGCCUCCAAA

variants of: B1; assay: kcat; higher = faster cleavage; RNA array; conditions: with glucosamine-6-phosphate
Fewer inactive variants are shown than the library holds.
quantity: kcat

C34U U69C    < 1e-05 s⁻¹
G60C C70U    < 1e-05 s⁻¹
A6C G13A A36U U56G    < 1e-05 s⁻¹
